Consider the following sequences and their measured apparent KD of K4 kissing-loop reporter readings.
System: K4 kissing-loop RNA reporter;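 note: bound reporter read as fluorescence of individual clusters on recovered sequencing chips by microscopy, with normalized cluster intensities fitted with a binding model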
test_summary: apparent KD of K4 kissing-loop reporter; higher = weaker reporter binding
settings: Eterna round: R107; input ligand: theophylline 20 uM
Respond numerically; units are nM and should not be typed.

Before answering, review these 5 worked examples.
Input: Item GCGCGUCAUGUCAGCGGUGACUUUGUCGAUACCAGCGCCGCAAGGCGCCCUUGGCAGCGACGCGCUGGAGUGAUGUUCCAGCGUG [#2 Exclusion - Theophylline A Attempt #12 (HarryS)] : provide apparent KD of K4 kissing-loop reporter
Output: 154

Input: Return reported apparent KD of K4 kissing-loop reporter. Input sequence: UACACGACUCGUGUAAACCGAGGUAACAGGCAGGAUAUGUAACGGAACAGAAGGGCCAUGUUGCGUGUCCAGUGAUGUUGGAUGC [Vetedile]
Output: 272

Input: Supply recorded apparent KD of K4 kissing-loop reporter for UUAGUCUAGAGAAGGAGCGAGUGAUGUUUGCUAAGAUCUAUGAUAUCAUAGAUCAAAUUUACUCAGGUAGGUCGCUCUAGACAUU [AK4 Exc Arginine B] here.
Output: 165

Input: State, in one line, measured apparent KD of K4 kissing-loop reporter of UUGUUUAACUGAAGGAGCGGCAAUUGAUACGUAGAUAUAGUGAUGUUAUAUAAGAUAGAGAGCCAGGUAGGUCGCAGAGGUGUUU [ExArgB.R]
Output: 219

Input: Hello, please tell me recorded apparent KD of K4 kissing-loop reporter for this one: GGGAAUUACGGAGGAUAUGCACUGAGGAGGAGAAUAUAGUGAUGUUAUAUAAGAGGAAGGAGAAGAGUAGAAGGCCGUGGAAAGG [SSFMNB.D]
Output: 217

Continuing:
Input: In one line, give reported apparent KD of K4 kissing-loop reporter of the entry UGCAGUGAUGUUGCUAUUUUUCUUGAUUAACGAGGACCGGUACGGCCGCCACUCGAUUUCUCUCUAGUCCAGUAUGUUGUUUGAU [whbob_EX_Tryp_A_t5] .
Output: 125

Input: Identify measured apparent KD of K4 kissing-loop reporter associated with GCCAGUGAUGUUGGCGAACCAACGCAUGCAGAGGAUAUUCGUUCUGGAAGAAGGCUGCAGCGUUAUCAAACGCAGUGAUGUUGCG [Same State FMN A GF 26]
Output: 165

Input: Please report apparent KD of K4 kissing-loop reporter for the following sequence: UGACUGGAUGGAAGGAGCGCUAAACUCCUAGUGAUGUUAGGGAAACGAGACAAAGUCUCGAAGCAGGUAGGUCGCCAUCUAGUCU [FiskerMod 14 - Jieux - Same State - Arginine B]
Output: 146

Input: Name the recorded apparent KD of K4 kissing-loop reporter of the item UGUGAGCUGUCGACAAAAGUCGACUAAAGCGAGGAUAUGACGAAAGUCAGAAGGCGUCAAUAAUGGAGUGAUGUUCCUGCUCACU [FmnA 9 G29] in your answer.
Output: 489

Input: Answer with the recorded apparent KD of K4 kissing-loop reporter of UAUACUAGACAAGAGAGAAUUCUCUCAAGAGAGGAUAUCCGAAUUCGGAGAAGGCUCGCUAAGUGAUGUUUGGAAUAGUCUAGAA [AK4 SS FMN A] only.
Output: 319

Input: Give apparent KD of K4 kissing-loop reporter for AAGUGAUGUUGUAGUGAUGUUGUGAUGUUGCAGGAUAUAUAGUGAUGUAGAAGGGUAUGUGCAGUUUUCUUAUUUGAGUGUUGAU [zwzamullin]
Output: 49.5

Input: Please supply the value of reported apparent KD of K4 kissing-loop reporter for the item GACUGGUUAACGAGUGAUGUUCGAUGGGAAGGAGCGCGCAGAAGUGCAGGUAGGUCGCCCUAUAACCAGGAAAUGGCUGGAUUAU [3.)]
Output: 252

Input: Give recorded apparent KD of K4 kissing-loop reporter. AGUGGACGUGUCUAGAGUGAUGUUCCGGAUACCAGACACGAAAGUGUCCCUUGGCAGCCGGAGUGAUGUUCUGGCGUUCACUAAA [Omei KL Theo A Exc B v6]
Output: 459

Input: State its apparent KD of K4 kissing-loop reporter: AAACAUCACUGGGAGUGAUGUUCUCAGUGACGAGGACCGGUACGGCCGCCACUCGCGAGAGAUAUAAAUAAGUAAUGACAUCAUU [Excl Tryptophan A V1]
Output: 357

Input: Write down apparent KD of K4 kissing-loop reporter measured for item CCGAUACAUUAUUCUACGGCCGAGAGCGAUACCAGCCAAAUUUAUGGCCCUUGGCAGCGCAGAUGCAGUGAUGUUGCAUACAUAC [Same State Theophylline A GF 18]
Output: 166

Input: Write down apparent KD of K4 kissing-loop reporter measured for item UGGAGUUGACGAAAAGUCAACUCCUGGGAAGGAGCGGACGAAAGUCCAGGUAGGUCGCCCACUACCAGUGAUGUUGGUACUCAAA
Output: 266

Input: # return recorded apparent KD of K4 kissing-loop reporter for entry UAUAGCGUCAGAAGGAGCGUGAGUAUAACAUGGCUGGAGUGAUGUUCCAGGAGUUAAUACUCACAGGUAGGUCGCUGACUCCUGG [Arg B SS t2]
Output: 150

Input: Name the recorded apparent KD of K4 kissing-loop reporter of the sequence listed here: GUACGCUCUCGAGUGAUGUUCGAUAAUCGCGAGGAUAUCGCUUUUGCGAGAAGGCGCGGAAUGAGGAAACUCGUUCUGAGUGUAC [FMN A 24]
Output: 673

Input: Return reported apparent KD of K4 kissing-loop reporter. Input sequence: AAGUGAUGUUGUAGUGAUGUUGUGAUGUUGCAGGAUAUAUAGUGAUGUAGAAGGGUAAGGACUGUUUUUUUUUUUGAGUGAUGUU [ookooyzrmullin]
Output: 56.8
